Recorded values, source PubChem BioAssay (EPA / NIEHS).

# measured on: Cellular tumor antigen p53 (Homo sapiens)
# test name: TOX21_p53_BLA_p3_ratio: Tox21 HCT-116 p53 Agonism Beta-lactamase Assay, Ratio, Phase 3 (AID 2283596)
Results filed as inconclusive are left out. Calls of active or inactive are those of the source. The calls were made as follows: active = hit-call score of the fitted dose curve at least 0.9, where 1 is the maximum; inconclusive = response in the unintended direction; inactive = score below 0.9.
Outcomes: y (active), n (inactive)

compound: COc1nc(C)nc(NC(=O)NS(=O)(=O)c2ccccc2Cl)n1
classification: n

compound: CC(C)(C)c1ccc(CSc2cnn(C(C)(C)C)c(=O)c2Cl)cc1
classification: n

compound: OC(c1ccc(Cl)cc1)(c1cncnc1)c1ccccc1Cl (stereo not drawn)
classification: n

compound: N#CC(CCc1ccc(Cl)cc1)(Cn1cncn1)c1ccccc1 (stereo not drawn)
classification: n

compound: COP(N)(=O)SC (stereo not drawn)
classification: n

compound: CCCCC(CC)COC(=O)c1ccccc1C(=O)OCC(CC)CCCC (stereo not drawn)
classification: n

compound: CC(C)C1(C)N=C(c2nc3ccccc3cc2C(=O)O)NC1=O (stereo not drawn)
classification: n

compound: Fc1ccc(Oc2ccnc3cc(Cl)cc(Cl)c23)cc1
classification: y

====

# Read-out: Interferon-gamma inducible Protein 10 (IP10), CXCL10 (gene 3627)
# test name: BSK_BE3C_IP10: BioMAP Diversity Plus: BE3C Assay for Interferon-gamma inducible Protein 10 (IP10) Biomarker Activity (AID 2283034)
# protocol conditions: primary human bronchial epithelial cells; actives raise or lower the signal
Calls of active or inactive are those of the source. How the source made its calls: active means hit-call score of the fitted dose curve at least 0.9, where 1 is the maximum; inactive means score below 0.9.
Outcomes: active, inactive

compound: CCNc1nc(Cl)nc(NC(C)C)n1
classification: inactive
--
compound: N#CC(CCc1ccc(Cl)cc1)(Cn1cncn1)c1ccccc1 (centres undefined)
classification: active
--
compound: CCCCOC(=O)c1ccccc1C(=O)OCCCC
classification: inactive
--
compound: COc1cnc(OC)n2nc(NS(=O)(=O)c3c(OCC(F)F)cccc3C(F)(F)F)nc12
classification: inactive
--
compound: C#CCOS(=O)OC1CCCCC1Oc1ccc(C(C)(C)C)cc1 (centres undefined)
classification: active
--
compound: COc1nc(NC(C)C)nc(NC(C)C)n1
classification: inactive
--
compound: CCON=C(CC)C1=C(O)CC(c2c(C)cc(C)cc2C)CC1=O (centres undefined)
classification: inactive
--
compound: N#Cc1nn(-c2c(Cl)cc(C(F)(F)F)cc2Cl)c(N)c1S(=O)C(F)(F)F (centres undefined)
classification: active
--
compound: COP(N)(=O)SC (centres undefined)
classification: inactive

====

# test name: BSK_KF3CT_SRB: Viability Assessment in the BioMAP Diversity Plus: KF3CT Assay (AID 2283069);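 also: total protein by sulforhodamine B staining as a cytotoxicity measure; read 24 h after compound addition; fitted for both signal gain and loss against DMSO baseline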
# protocol conditions: primary human keratinocytes with fibroblasts
Activity calls are given as the source filed them. How the source made its calls: active means hit-call score of the fitted dose curve at least 0.9, where 1 is the maximum; inactive means score below 0.9.
Outcomes: active, inactive

compound: CON(C)C(=O)Nc1ccc(Cl)c(Cl)c1
classification: inactive

compound: O=C(O)COc1nc(Cl)c(Cl)cc1Cl
classification: inactive

compound: O=C(O)c1nc(Cl)ccc1Cl
classification: inactive

compound: CC1=C(C(=O)Nc2ccccc2)SCCO1
classification: inactive

compound: N#Cc1cc(Br)c(O)c(Br)c1
classification: inactive

compound: CCCCNC(=O)n1c(NC(=O)OC)nc2ccccc21
classification: inactive

compound: CNC(=S)S
classification: inactive

compound: COC(=O)C=C(C)OP(=O)(OC)OC
classification: inactive

compound: CC(C)C1(C)N=C(c2nc3ccccc3cc2C(=O)O)NC1=O (configuration not stated)
classification: inactive

compound: CCc1nn(C)c(C(=O)NCc2ccc(C(C)(C)C)cc2)c1Cl
classification: active

compound: CCON=C(CC)C1=C(O)CC(c2c(C)cc(C)cc2C)CC1=O (configuration not stated)
classification: inactive

compound: C=CC1(C)OC(=O)N(c2cc(Cl)cc(Cl)c2)C1=O (configuration not stated)
classification: inactive

compound: CCNc1nc(Cl)nc(NCC)n1
classification: inactive

compound: Cc1ccc(-c2c(Cl)nc(C#N)n2S(=O)(=O)N(C)C)cc1
classification: active

compound: CN(C)C(=S)SSC(=S)N(C)C
classification: active

compound: CCOC(=O)CC(SP(=S)(OC)OC)C(=O)OCC (configuration not stated)
classification: inactive

compound: C#CCOS(=O)OC1CCCCC1Oc1ccc(C(C)(C)C)cc1 (configuration not stated)
classification: active

compound: COP(=S)(OC)Oc1nc(Cl)c(Cl)cc1Cl
classification: inactive

compound: COC(=O)C(C)Oc1ccc(Oc2ccc(Cl)cc2Cl)cc1 (configuration not stated)
classification: inactive

compound: Oc1ccccc1-c1ccccc1
classification: inactive

compound: CCCC1COC(Cn2cncn2)(c2ccc(Cl)cc2Cl)O1 (configuration not stated)
classification: inactive

compound: CCOC(=O)C(Cl)Cc1cc(-n2nc(C)n(C(F)F)c2=O)c(F)cc1Cl (configuration not stated)
classification: inactive

compound: COP(N)(=O)SC (configuration not stated)
classification: inactive

compound: COC(=O)c1ccccc1C(=O)OC
classification: inactive

compound: CCCCOC(=O)c1ccccc1C(=O)OCCCC
classification: inactive

compound: COc1cnc(OC)n2nc(NS(=O)(=O)c3c(OCC(F)F)cccc3C(F)(F)F)nc12
classification: inactive

compound: CC(C)Oc1cc(-n2nc(C(C)(C)C)oc2=O)c(Cl)cc1Cl
classification: inactive
